Taken from the supplement of paper PMC10065799.

For each entry below, report its phosphorylation enrichment value.
TARGET OF ASSAY: FGFR1 (UniProt P11362)
Sequence (P11362 whole entry, looked up): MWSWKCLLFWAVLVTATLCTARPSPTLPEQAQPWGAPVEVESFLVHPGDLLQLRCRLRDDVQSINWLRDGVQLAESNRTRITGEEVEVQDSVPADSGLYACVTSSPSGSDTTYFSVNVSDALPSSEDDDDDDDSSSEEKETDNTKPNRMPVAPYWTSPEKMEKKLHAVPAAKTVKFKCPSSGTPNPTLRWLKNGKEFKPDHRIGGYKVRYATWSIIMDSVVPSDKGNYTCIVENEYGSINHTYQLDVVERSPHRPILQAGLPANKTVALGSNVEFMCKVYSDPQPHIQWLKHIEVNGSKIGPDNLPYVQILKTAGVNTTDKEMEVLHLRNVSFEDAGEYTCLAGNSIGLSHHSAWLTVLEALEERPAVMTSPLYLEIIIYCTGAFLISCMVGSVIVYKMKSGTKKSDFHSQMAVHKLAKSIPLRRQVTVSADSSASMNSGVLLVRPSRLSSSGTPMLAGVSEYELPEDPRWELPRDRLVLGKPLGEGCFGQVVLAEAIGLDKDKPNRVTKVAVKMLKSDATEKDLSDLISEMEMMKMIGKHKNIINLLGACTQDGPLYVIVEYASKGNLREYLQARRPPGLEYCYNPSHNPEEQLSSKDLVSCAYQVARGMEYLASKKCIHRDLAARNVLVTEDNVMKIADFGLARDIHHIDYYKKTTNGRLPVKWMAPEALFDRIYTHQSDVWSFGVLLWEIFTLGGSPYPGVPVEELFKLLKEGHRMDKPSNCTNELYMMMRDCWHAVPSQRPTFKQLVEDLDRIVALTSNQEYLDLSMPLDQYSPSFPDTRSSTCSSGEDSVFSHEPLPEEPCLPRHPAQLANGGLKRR
PROCEDURE DETAILS: phosphorylation enrichment, bacterial display (enrichment ratio); higher = better substrate or ligand; peptides without Tyr show the background
Answers are plain numbers.

Solved entries (count: 5):
1) KELAKYFKLHH [AK7_Y390_N389K_YF]: 0.456
2) DHFNQYEQQKM [CHD7_Y75_YF]: 0.468
3) ISDDNYGRIRL [ARCN1_Y310_K309N]: 0.407
4) FIRRDYEACKA [BBS4_Y48_K46R_YF]: 0.45
5) AFLQTYAHEVS [PCDHGA5_Y753_S754A]: 0.621

Provide phosphorylation enrichment for all items below, preserving their order.
1. GLGGGCGGASG [KRT8_Y54_Y54C]
2. RKETFYTLSCR [GUCY2C_Y681]

Solution:
[0.494, 1.49]

* * *

TARGET OF ASSAY: FGFR3 (UniProt P22607)
Sequence (P22607 whole entry, looked up): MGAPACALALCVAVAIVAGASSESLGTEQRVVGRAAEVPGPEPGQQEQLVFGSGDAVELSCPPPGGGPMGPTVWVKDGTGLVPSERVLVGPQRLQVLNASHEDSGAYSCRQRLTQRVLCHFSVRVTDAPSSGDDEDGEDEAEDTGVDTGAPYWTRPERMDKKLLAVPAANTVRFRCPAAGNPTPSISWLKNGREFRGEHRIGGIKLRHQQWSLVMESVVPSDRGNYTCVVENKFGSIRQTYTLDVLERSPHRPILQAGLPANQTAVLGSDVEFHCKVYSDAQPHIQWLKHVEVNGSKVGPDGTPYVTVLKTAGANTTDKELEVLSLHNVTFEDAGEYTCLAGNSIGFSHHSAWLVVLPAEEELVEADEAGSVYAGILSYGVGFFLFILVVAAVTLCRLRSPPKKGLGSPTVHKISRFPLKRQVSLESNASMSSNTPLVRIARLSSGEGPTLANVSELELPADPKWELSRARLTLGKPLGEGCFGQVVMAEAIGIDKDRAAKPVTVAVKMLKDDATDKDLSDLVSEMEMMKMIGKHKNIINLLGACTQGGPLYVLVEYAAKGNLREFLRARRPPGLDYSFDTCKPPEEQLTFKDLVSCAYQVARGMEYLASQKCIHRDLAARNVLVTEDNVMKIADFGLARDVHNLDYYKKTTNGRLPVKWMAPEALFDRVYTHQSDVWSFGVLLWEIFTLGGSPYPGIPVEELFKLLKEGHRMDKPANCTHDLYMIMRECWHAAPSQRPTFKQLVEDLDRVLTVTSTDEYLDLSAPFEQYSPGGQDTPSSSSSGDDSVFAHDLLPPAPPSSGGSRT
PROCEDURE DETAILS: phosphorylation enrichment, bacterial display (enrichment ratio); higher = better substrate or ligand; peptides without Tyr show the background
READOUT TYPE: phosphorylation enrichment
Answers are plain numbers.

1) SLKEFYGEDAK [ALDH3A1_Y272]: 0.692
2) ELQGTYTSLQQ [KIF3C_Y574_R571Q]: 0.595
3) ALKKPYGVLFK [RPF2_Y59_YF]: 0.518
4) ALMGPYHGQVL [HADHA_Y343_L342P]: 0.436
5) MGHVNYGAFIN [GLB1_Y485_R482H_YF]: 0.505

Provide phosphorylation enrichment for all items below, preserving their order.
1. PADCRYFAFPQ [GAMT_Y222_YF]
2. SGSFRYGSSCE [SELE_Y390]
3. PELINYHQHNF [BTK_Y361_S366F]

Solution:
1.78
0.554
0.598

* * *

TARGET OF ASSAY: Hck (UniProt P08631)
Sequence (P08631 whole entry, looked up): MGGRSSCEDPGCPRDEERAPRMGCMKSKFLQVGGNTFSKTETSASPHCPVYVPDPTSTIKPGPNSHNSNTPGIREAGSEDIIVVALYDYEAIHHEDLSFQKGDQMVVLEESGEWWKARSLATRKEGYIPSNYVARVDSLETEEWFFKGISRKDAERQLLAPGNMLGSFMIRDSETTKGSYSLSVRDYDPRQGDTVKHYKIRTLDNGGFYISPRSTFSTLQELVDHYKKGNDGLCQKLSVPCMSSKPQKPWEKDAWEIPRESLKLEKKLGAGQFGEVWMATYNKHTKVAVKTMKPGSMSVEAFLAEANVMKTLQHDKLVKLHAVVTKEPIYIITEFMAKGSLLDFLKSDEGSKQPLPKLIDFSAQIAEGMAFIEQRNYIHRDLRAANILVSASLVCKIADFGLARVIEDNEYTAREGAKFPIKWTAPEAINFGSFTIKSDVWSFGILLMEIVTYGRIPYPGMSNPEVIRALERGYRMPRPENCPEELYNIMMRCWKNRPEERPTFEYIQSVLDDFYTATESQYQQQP
PROCEDURE DETAILS: phosphorylation enrichment, bacterial display (enrichment ratio); higher = better substrate or ligand; peptides without Tyr show the background
# cutoff 0.7 applies to phosphorylation enrichment; >= gives T, < gives F

Would you please look over these solved cases?
1. FRVAGYETQGG [TIA1_Y383_YF]: F
2. AAVPAYDKIRV [STXBP2_Y401]: T
3. RSRQIYDAYIM [GRK3_Y109]: T

Problem: Answer whether phosphorylation enrichment of YSKTQYNQVPS [CXADR_Y318] is greater than or equal to 0.7.
Solution: F

Problem: For PVDVAYRRGFF [PLEC_Y2967_YF] then?
Solution: F

Problem: For PESIMYRKFTT [NTRK3_Y744] then?
Solution: F

Problem: For LGQRIYQYIRS [DYRK1B_Y271_Q275R] then?
Solution: T

Problem: For KVQVSYKGDTK [HSPA1A_Y107_E110D] then?
Solution: F

* * *

For each entry below, report its phosphorylation enrichment value.
TARGET OF ASSAY: Jak2 (UniProt O60674)
Sequence (O60674 whole entry, looked up): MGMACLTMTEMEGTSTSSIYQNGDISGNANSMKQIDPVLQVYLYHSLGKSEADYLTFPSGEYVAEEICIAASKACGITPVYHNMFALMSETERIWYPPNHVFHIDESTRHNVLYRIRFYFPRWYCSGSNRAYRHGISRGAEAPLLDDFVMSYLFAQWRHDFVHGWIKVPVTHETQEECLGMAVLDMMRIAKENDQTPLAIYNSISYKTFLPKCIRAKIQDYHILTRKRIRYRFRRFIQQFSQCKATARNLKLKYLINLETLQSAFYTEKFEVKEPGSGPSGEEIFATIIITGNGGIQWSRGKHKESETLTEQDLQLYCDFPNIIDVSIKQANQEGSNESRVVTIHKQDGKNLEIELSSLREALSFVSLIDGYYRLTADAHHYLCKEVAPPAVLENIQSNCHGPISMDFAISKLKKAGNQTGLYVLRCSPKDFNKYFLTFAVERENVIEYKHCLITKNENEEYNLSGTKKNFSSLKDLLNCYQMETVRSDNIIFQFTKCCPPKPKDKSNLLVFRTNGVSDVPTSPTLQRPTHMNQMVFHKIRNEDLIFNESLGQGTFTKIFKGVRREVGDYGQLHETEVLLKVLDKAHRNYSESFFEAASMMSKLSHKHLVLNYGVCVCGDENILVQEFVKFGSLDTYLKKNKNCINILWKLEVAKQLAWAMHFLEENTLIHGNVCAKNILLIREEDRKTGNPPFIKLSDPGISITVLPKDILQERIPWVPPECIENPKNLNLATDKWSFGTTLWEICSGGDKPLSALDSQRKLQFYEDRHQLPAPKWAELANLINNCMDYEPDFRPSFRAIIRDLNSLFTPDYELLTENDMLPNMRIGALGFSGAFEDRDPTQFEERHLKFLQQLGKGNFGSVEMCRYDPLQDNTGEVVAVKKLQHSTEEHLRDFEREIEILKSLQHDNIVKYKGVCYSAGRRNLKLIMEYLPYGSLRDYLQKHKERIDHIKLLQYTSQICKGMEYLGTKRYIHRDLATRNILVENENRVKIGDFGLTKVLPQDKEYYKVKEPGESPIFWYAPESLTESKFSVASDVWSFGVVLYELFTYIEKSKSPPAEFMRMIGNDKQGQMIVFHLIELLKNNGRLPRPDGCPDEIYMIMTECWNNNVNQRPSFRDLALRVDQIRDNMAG
PROCEDURE DETAILS: phosphorylation enrichment, bacterial display (enrichment ratio); higher = better substrate or ligand; peptides without Tyr show the background
Answers are plain numbers.

1. GGPAEYLRRAS [PKLR_Y38_G37E]: 0.508
2. DPLLTYRFPPK [LMNA_Y481]: 0.515
3. PGRRFYVVACD [RNASE3_Y134]: 2.05
4. IVRSLYKDLED [VHL_Y185_E186K]: 0.877
5. FSAGTYPRLEE [SYCN_Y108]: 0.828

Provide phosphorylation enrichment for all items below, preserving their order.
1. HNLDYYKQTTN [FGFR3_Y648_K650Q]
2. KQLGEYKFQNA [ALB_Y425_E420K]
3. MICSAYALGGL [CPS1_Y590_R587C]
4. TGEDWYVLVRV [SF3B3_Y904_G908R]
5. RFMVGYEMLAQ [GALT_Y339_K334R]
6. KGIQLYDTPFE [SHB_Y297_YF]

Solution:
1.27
0.525
0.983
1.21
1.4
0.843

* * *

For each entry below, report its SH2 binding enrichment value.
TARGET OF ASSAY: c-Src SH2;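 note: peptide library displayed on the E. coli surface as eCPX fusions, selected cells deep-sequenced, score is each peptide's frequency after selection divided by its frequency in the input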
PROCEDURE DETAILS: SH2 binding enrichment of the phosphorylated peptide, bacterial display (enrichment ratio); higher = better substrate or ligand; peptides without Tyr show the background
Numbers only.

Solved entries (count: 10):
1. ALAHKCHGGGG [HBB_Y146_Y146C]: 0.538
2. FADIAYNYHHG [PAH_Y166_R169H]: 0.477
3. LDPDSYNVFEN [FOXC1_Y159_M161V]: 1.59
4. FASVEYQEALS [GALNS_Y461_A459V]: 0.576
5. DGKYSYLKVGH [GRM3_Y480_G475D]: 4.12
6. SETSRYLSELF [KCNJ3_Y67_D70E]: 0.588
7. VEDQFYRVDCF [FHL1_Y208_C209R_YF]: 0.515
8. MFKPMYALFRT [HUWE1_Y4078_N4075K]: 1.52
9. GITVAYTIPKK [UBA5_Y372]: 0.835
10. SIFKDYFRFNF [PLA2G2D_Y85_YF]: 1.27

Provide SH2 binding enrichment for all items below, preserving their order.
1. AQRKLYRNVML [ZNF569_Y33]
2. HVEAVYIDIAD [PITPNA_Y140]
3. AVAFVYYKSIG [ADGRL4_Y301]
4. DEEEEYEFMNR [ERBB3_Y1197_D1194E_YF]

Solution:
1: 0.728; 2: 0.541; 3: 0.76; 4: 0.637

* * *

For each entry below, report its phosphorylation enrichment value.
TARGET OF ASSAY: Fyn (UniProt P06241)
Sequence (P06241 whole entry, looked up): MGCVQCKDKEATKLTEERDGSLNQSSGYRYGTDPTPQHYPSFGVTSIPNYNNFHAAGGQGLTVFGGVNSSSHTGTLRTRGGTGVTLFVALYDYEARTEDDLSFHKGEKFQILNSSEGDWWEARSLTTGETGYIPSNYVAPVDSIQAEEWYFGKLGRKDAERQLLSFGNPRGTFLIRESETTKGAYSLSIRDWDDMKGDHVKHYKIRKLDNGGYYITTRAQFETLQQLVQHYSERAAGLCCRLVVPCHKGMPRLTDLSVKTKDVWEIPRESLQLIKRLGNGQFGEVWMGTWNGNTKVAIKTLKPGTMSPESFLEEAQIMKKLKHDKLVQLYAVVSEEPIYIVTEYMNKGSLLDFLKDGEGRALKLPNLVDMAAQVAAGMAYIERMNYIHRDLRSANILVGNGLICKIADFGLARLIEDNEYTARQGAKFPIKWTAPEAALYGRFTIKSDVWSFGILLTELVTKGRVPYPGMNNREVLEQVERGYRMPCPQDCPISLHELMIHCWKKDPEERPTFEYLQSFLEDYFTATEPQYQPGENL
PROCEDURE DETAILS: phosphorylation enrichment, bacterial display (enrichment ratio); higher = better substrate or ligand; peptides without Tyr show the background

1. PGQRVYVVAER [SHH_Y316]: 0.395

Provide phosphorylation enrichment for all items below, preserving their order.
1. MEYAKYGSLRG [RET_Y809_V804M]
2. LDVDVYGPSVP [NUBPL_Y109]
3. VSTAVYKRFPS [BEST1_Y148]
4. AVRFIYTIDGS [DCX_Y105_G100A_YF]
5. DMLFQYLKQIE [RPAP3_Y569_YF]
6. MDFRSYPHEFG [RBM10_Y44_R46H_YF]
7. RSRSSYTHGLN [MYCT1_Y116]

Solution:
1: 1.14; 2: 1.47; 3: 0.379; 4: 1.56; 5: 0.421; 6: 0.397; 7: 0.956

Provide phosphorylation enrichment for all items below, preserving their order.
1. MKVPVYETPAG [PGM5_Y358]
2. ISDDNYGRIRL [ARCN1_Y310_K309N]

Solution:
1. 6.27
2. 0.704

Provide phosphorylation enrichment for all items below, preserving their order.
1. RETLTYAQAQG [BRD1_Y33_R38G]
2. GGPAEYLRRAS [PKLR_Y38_G37E]
3. IEPCIYIPEDD [XPNPEP3_Y455_G453C]

Solution:
0.551
0.427
0.563

Problem: Fill in the blank: the reported phosphorylation enrichment of CVAARYMDMKG [WFIKKN2_Y93_V96M] is ____.
Solution: 0.439

* * *

TARGET OF ASSAY: Jak2 (UniProt O60674)
PROCEDURE DETAILS: phosphorylation enrichment, bacterial display (enrichment ratio); higher = better substrate or ligand; peptides without Tyr show the background
The class of a record is decided solely by its measured phosphorylation enrichment; consult LOW (below 0.8), MEDIUM (0.8 to below 1), HIGH (1 or more)

Would you please look over these solved cases?
1. PELINYQQHNS [BTK_Y361_H362Q]: HIGH
2. PEVRRHVLPLN [RPE65_Y368_Y368H]: HIGH

Problem: # bin lookup: classify YSKDNYKRVTG [PANK2_Y405] by its phosphorylation enrichment
Solution: LOW

Problem: For RHNEIYEIKVD [LGR5_Y387] then?
Solution: HIGH

Problem: For RIGRKCKKVRF [F8_Y442_Y442C] then?
Solution: LOW

* * *

TARGET OF ASSAY: Jak2 (UniProt O60674)
PROCEDURE DETAILS: phosphorylation enrichment, bacterial display (enrichment ratio); higher = better substrate or ligand; peptides without Tyr show the background
# cutoff 1 applies to phosphorylation enrichment; >= gives YES, < gives NO

Would you please look over these solved cases?
1. KKILCYIQGGS [HYDIN_Y4610_N4606K]: YES
2. MSLRSYGSWEG [APC_Y96_R99W]: NO
3. SNYRAYATEPQ [TNNI3_Y29_H34Q]: NO
4. SVVVPYEPPKV [TP53_Y220_E224K]: NO
5. RLRKYYLGKYL [KLB_Y906]: NO

Problem: Answer whether phosphorylation enrichment of SLFNGYVFSGM [NEIL3_Y71_V76M_YF] is greater than or equal to 1.
Solution: YES
